# Experimental target: human TAS2R1 (Homo sapiens, UniProt Q9NYW7)
# Construct: expressed in transfected cells; host or cells: HEK293T-Gα16gust44
# Sequence (Q9NYW7 whole entry): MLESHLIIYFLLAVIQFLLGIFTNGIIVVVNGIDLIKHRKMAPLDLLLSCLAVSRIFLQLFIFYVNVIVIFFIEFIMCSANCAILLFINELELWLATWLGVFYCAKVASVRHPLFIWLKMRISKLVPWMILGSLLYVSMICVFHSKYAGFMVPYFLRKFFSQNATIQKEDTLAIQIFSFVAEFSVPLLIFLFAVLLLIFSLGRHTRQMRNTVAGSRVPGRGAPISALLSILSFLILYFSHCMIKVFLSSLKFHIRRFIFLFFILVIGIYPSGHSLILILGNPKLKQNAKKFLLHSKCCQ
# Measurement description: Calcium imaging assay (FLIPR), HEK293T-Gα16gust44 cells transfected with human TAS2R1
# Assay type: cell-based
# Test parameters: Time 68.781 s
Answer each item with its documented RLU.
Expressed in RLU, but write only the number.

Prompt: # lookup: RLU of C[C@H](CCC(=O)O)[C@H]1CC[C@H]2[C@@H]3CC[C@@H]4C[C@H](O)CC[C@]4(C)[C@H]3C[C@H](O)[C@]12C [Deoxycholic Acid, deoxycholic acid]
Response: 409.61

Prompt: What would you report for C[C@H](CCC(=O)NCCS(=O)(=O)O)[C@H]1CC[C@H]2[C@@H]3CC[C@@H]4C[C@H](O)CC[C@]4(C)[C@H]3CC[C@]12C [Taurolithocholic Acid, taurolithocholic acid] ?
Response: 708.17

Prompt: What would you report for C[C@H](CCC(=O)NCCS(=O)(=O)O)[C@H]1CC[C@H]2[C@@H]3[C@H](O)C[C@@H]4C[C@H](O)CC[C@]4(C)[C@H]3C[C@H](O)[C@]12C [Taurocholic Acid, taurocholic acid] ?
Response: 406.802

Prompt: What would you report for C[C@H](CCC(=O)NCC(=O)O)[C@H]1CC[C@H]2[C@@H]3[C@H](O)C[C@@H]4C[C@H](O)CC[C@]4(C)[C@H]3C[C@H](O)[C@]12C [Glycocholic Acid, glycocholic acid] ?
Response: 631.839

---

# Experimental target: human TAS2R4 (Homo sapiens, UniProt Q9NYW5)
# Construct: expressed in transfected cells; host or cells: HEK293T-Gα16gust44
# Sequence (Q9NYW5 1-299): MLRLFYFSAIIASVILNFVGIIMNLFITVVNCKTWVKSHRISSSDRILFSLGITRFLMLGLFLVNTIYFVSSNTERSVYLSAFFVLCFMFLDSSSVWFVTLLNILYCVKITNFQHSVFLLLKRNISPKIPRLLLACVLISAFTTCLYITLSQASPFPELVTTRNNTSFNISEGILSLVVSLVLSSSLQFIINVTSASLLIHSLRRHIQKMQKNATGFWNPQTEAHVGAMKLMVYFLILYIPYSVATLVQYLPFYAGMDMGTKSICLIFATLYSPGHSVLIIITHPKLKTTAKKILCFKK
# Measurement description: Calcium imaging assay (FLIPR), HEK293T-Gα16gust44 cells transfected with human TAS2R4; also: test concentration or dose not given here
# Assay type: cell-based
# Test parameters: Time (s) 70.781 (TCA, TLCA: 70.782)
Answer each item with its documented RLU, fluorescence trace.
Expressed in RLU, but write only the number.

Prompt: # lookup: RLU, fluorescence trace of C[C@H](CCC(=O)O)[C@H]1CC[C@H]2[C@@H]3[C@@H](O)C[C@@H]4C[C@H](O)CC[C@]4(C)[C@H]3CC[C@]12C
Response: 394.232

Prompt: What would you report for C[C@H](CCC(=O)NCC(=O)O)[C@H]1CC[C@H]2[C@@H]3[C@H](O)C[C@@H]4C[C@H](O)CC[C@]4(C)[C@H]3C[C@H](O)[C@]12C ?
Response: 864.365

Prompt: What would you report for C[C@H](CCC(=O)NCCS(=O)(=O)O)[C@H]1CC[C@H]2[C@@H]3CC[C@@H]4C[C@H](O)CC[C@]4(C)[C@H]3CC[C@]12C ?
Response: 284.572
